# Test system: Chryseobacterium indologenes
# test: Activity of Chryseobacterium indologenes metallo-beta-lactamase IND-5 expressed in Escherichia coli BL21(DE3) assessed as substrate hydrolysis
Binary classification by kcat, with 10 s⁻¹ as an inclusive lower bound for rule met; all other cases are rule not met.

In [3]: df
Out[3]:
                                   molecule   label_class
0  CCN1CCN(C(=O)N[C@@H](C(=O)N[C@@H]2C(=O)N3[C@@H]2SC(C)(C)[C@@H]3C(=O)O)c2ccccc2)C(=O)C1=O      rule met
1  O=C(Cc1cccs1)N[C@@H]1C(=O)N2C(C(=O)O)=C(/C=C/c3ccc([N+](=O)[O-])cc3[N+](=O)[O-])CS[C@H]12  rule not met
2  CC1(C)S[C@@H]2[C@H](NC(=O)C(C(=O)O)c3ccccc3)C(=O)N2[C@H]1C(=O)O (some centres not stated)      rule met
3  C[C@@H](O)[C@H]1C(=O)N2C(C(=O)O)=C(SCCNC=N)C[C@H]12 [IMIPENEM ANHYDROUS]  rule not met
4  CC1(C)S[C@@H]2[C@H](NC(=O)Cc3ccccc3)C(=O)N2[C@H]1C(=O)O      rule met
5  CC1(C)S[C@@H]2[C@H](NC(=O)[C@H](N)c3ccccc3)C(=O)N2[C@H]1C(=O)O      rule met
6  CC1(C)[C@H](C(=O)O)N2C(=O)C[C@H]2S1(=O)=O  rule not met
